Test system: Balb/c splenocytes (resting lymphocytes)
ASSAY: Lymphocyte viability (LcV) assay
Assay type: cell-based, murine
CONDITION_SUMMARY: unstimulated Balb/c splenocytes, MTT
Numbered stars: 1 amine (or outer) side, 2 acyl side, 3 side chain; on linkers, the order of the positions; unused ones are H or OH. Bridge positions count the residues as written; N and C are the ends. Square brackets hold non-standard residues; d marks the D form. Peptide text beside a SMILES is read from it. * marks the point of attachment. X2 = CC[C@H](C)[C@@H](N[*:1])[C@@H](O)CC(=O)O[C@@H](C(=O)[C@H](C)C(=O)[*:2])C(C)C; X1 = CC[C@H](C)[C@@H](N[*:1])[C@@H](O)CC(=O)O[C@H](C(=O)[C@H](C)C(=O)[*:2])C(C)C; X3 = CC[C@H](C)[C@H](N[*:1])[C@@H](O)CC(=O)O[C@H](C(=O)[C@H](C)C(=O)[*:2])C(C)C; X6 = CC[C@H](C)[C@@H](N[*:1])[C@H](O)CC(=O)O[C@H](C(=O)[C@H](C)C(=O)[*:2])C(C)C; NMeY = CN[C@@H](Cc1ccc(O)cc1)C(=O)O; aThr = C[C@H](O)[C@H](N)C(=O)O; NMeL = CN[C@@H](CC(C)C)C(=O)O; dNMeL = CN[C@H](CC(C)C)C(=O)O; Lauroyl = CCCCCCCCCCCC(=O)*; Isobutyryl = CC(C)C(=O)*; Cbz = O=C(OCc1ccccc1)*; For = O=C*
QUANTITY_KIND: cytoxicity to lymphocytes LcV, LC50

INSERT INTO measurements (molecule, quantity_kind, reported_result) VALUES
  ('CC[C@H](C)[C@H]1NC(=O)[C@@H](NC(=O)[C@@H](CC(C)C)N(C)C(=O)[C@@H]2CCCN2)[C@@H](C)OC(=O)[C@H](Cc2ccc(OC)cc2)N(C)C(=O)[C@@H]2CCCN2C(=O)[C@H](CC(C)C)NC(=O)[C@@H](C)C(=O)[C@H](C(C)C)OC(=O)C[C@@H]1O [Compound 28, N^α -(L-Pro)Didemnin A] (H-P[dNMeL]T[X1]LP[NMeY](Me); ester 3-C)', 'cytoxicity to lymphocytes LcV, LC50', '> 9.60 µM'),
  ('CC[C@H](C)[C@H]1NC(=O)[C@@H](NC(=O)[C@@H](CC(C)C)NC)[C@@H](C)OC(=O)[C@H](Cc2ccc(OC)cc2)N(C)C(=O)[C@@H]2CCCN2C(=O)[C@H](CC(C)C)NC(=O)[C@@H](C)C(=O)[C@@H](C(C)C)OC(=O)C[C@@H]1O [Compound 12, Epididemnin A1] (H-[dNMeL]T[X2]LP[NMeY](Me); ester 2-C)', 'cytoxicity to lymphocytes LcV, LC50', '> 10.6 µM'),
  ('CC[C@H](C)[C@H]1NC(=O)[C@@H](NC(=O)[C@@H](CC(C)C)N(C)C(=O)[C@@H]2CCCN2C(=O)C(C)C)[C@@H](C)OC(=O)[C@H](Cc2ccc(OC)cc2)N(C)C(=O)[C@@H]2CCCN2C(=O)[C@H](CC(C)C)NC(=O)[C@@H](C)C(=O)[C@H](C(C)C)OC(=O)C[C@@H]1O [Compound 33, [Isobutyryl^9]Didemnin B] (Isobutyryl-P[dNMeL]T[X1]LP[NMeY](Me); ester 3-C)', 'cytoxicity to lymphocytes LcV, LC50', '2.24 µM'),
  ('CC[C@H](C)[C@@H]1NC(=O)[C@@H](NC(=O)[C@H](CC(C)C)N(C)C=O)[C@H](C)OC(=O)[C@H](Cc2ccc(OC)cc2)N(C)C(=O)[C@@H]2CCCN2C(=O)[C@H](CC(C)C)NC(=O)[C@@H](C)C(=O)[C@H](C(C)C)OC(=O)C[C@@H]1O [Compound 26, Didemnin G] (For-[NMeL][aThr][X3]LP[NMeY](Me); ester 2-C)', 'cytoxicity to lymphocytes LcV, LC50', '> 10.0 µM'),
  ('CC[C@H](C)[C@H]1NC(=O)[C@@H](NC(=O)[C@@H](CC(C)C)N(C)C(=O)[C@@H]2CCCN2C(=O)[C@H](C)O)[C@@H](C)OC(=O)[C@H](Cc2ccc(OC)c(I)c2)N(C)C(=O)[C@@H]2CCCN2C(=O)[C@H](CC(C)C)NC(=O)[C@@H](C)C(=O)[C@H](C(C)C)OC(=O)C[C@@H]1O', 'cytoxicity to lymphocytes LcV, LC50', '> 8.10 µM'),
  ('CC[C@H](C)[C@H]1NC(=O)[C@@H](NC(=O)[C@@H](CC(C)C)NC)[C@@H](C)OC(=O)[C@H](Cc2ccc(OC)cc2)N(C)C(=O)[C@@H]2CCCN2C(=O)[C@H](CC(C)C)NC(=O)[C@@H](C)C(=O)[C@H](C(C)C)OC(=O)C[C@@H]1O [Compound 2, Didemnin A] (H-[dNMeL]T[X1]LP[NMeY](Me); ester 2-C)', 'cytoxicity to lymphocytes LcV, LC50', '> 11.0 µM'),
  ('CC[C@H](C)[C@H]1NC(=O)[C@@H](NC(=O)[C@@H](CC(C)C)N(C)C(=O)OCc2ccccc2)[C@@H](C)OC(=O)[C@H](Cc2ccc(OC)cc2)N(C)C(=O)[C@@H]2CCCN2C(=O)[C@H](CC(C)C)NC(=O)[C@@H](C)C(=O)[C@H](C(C)C)OC(=O)C[C@H]1O [Compound 4, Z-[(3R,4R,5S)Ist^2]Didemnin A] (Cbz-[dNMeL]T[X6]LP[NMeY](Me); ester 2-C)', 'cytoxicity to lymphocytes LcV, LC50', '9.00 µM'),
  ('CC[C@H](C)[C@H]1NC(=O)[C@@H](NC(=O)[C@@H](CC(C)C)N(C)C(=O)[C@@H]2CCCN2C(=O)[C@H](C)O)[C@@H](C)OC(=O)[C@H](Cc2ccc(O)cc2)NC(=O)[C@@H]2CCCN2C(=O)[C@H](CC(C)C)NC(=O)[C@@H](C)C(=O)[C@H](C(C)C)OC(=O)C[C@@H]1O', 'cytoxicity to lymphocytes LcV, LC50', '> 9.20 µM'),
  ('CCCCCCCCCCCC(=O)N(C)[C@H](CC(C)C)C(=O)N[C@@H]1C(=O)N[C@H]([C@@H](C)CC)[C@@H](O)CC(=O)O[C@@H](C(C)C)C(=O)[C@H](C)C(=O)N[C@@H](CC(C)C)C(=O)N2CCC[C@H]2C(=O)N(C)[C@@H](Cc2ccc(OC)cc2)C(=O)O[C@@H]1C [Compound 24, N^α -Dodecanoyldidemnin A] (Lauroyl-[dNMeL]T[X1]LP[NMeY](Me); ester 2-C)', 'cytoxicity to lymphocytes LcV, LC50', '> 8.90 µM'),
  ('CC[C@H](C)[C@H]1NC(=O)[C@@H](NC(=O)[C@@H](CC(C)C)N(C)C(=O)OCc2ccccc2)[C@@H](C)OC(=O)[C@H](Cc2ccc(OC)cc2)N(C)C(=O)[C@@H]2CCCN2C(=O)[C@H](CC(C)C)NC(=O)[C@@H](C)C(=O)[C@H](C(C)C)OC(=O)C[C@@H]1O [Compound 3, Z-Didemnin A] (Cbz-[dNMeL]T[X1]LP[NMeY](Me); ester 2-C)', 'cytoxicity to lymphocytes LcV, LC50', '7.50 µM'),
  ('CC[C@H](C)[C@H]1NC(=O)[C@@H](NC(=O)[C@@H](CC(C)C)N(C)C(C)=O)[C@@H](C)OC(=O)[C@H](Cc2ccc(OC)cc2)N(C)C(=O)[C@@H]2CCCN2C(=O)[C@H](CC(C)C)NC(=O)[C@@H](C)C(=O)[C@H](C(C)C)OC(=O)C[C@@H]1O [Compound 18, N^α -Acetyldidemnin A] (Ac-[dNMeL]T[X1]LP[NMeY](Me); ester 2-C)', 'cytoxicity to lymphocytes LcV, LC50', '> 10.0 µM');
